Molecular target: Adenosine A3 receptor (Homo sapiens, UniProt P0DMS8)
Construct: expressed in transfected cells; host or cells: CHO cell membranes
Sequence (P0DMS8 1-318): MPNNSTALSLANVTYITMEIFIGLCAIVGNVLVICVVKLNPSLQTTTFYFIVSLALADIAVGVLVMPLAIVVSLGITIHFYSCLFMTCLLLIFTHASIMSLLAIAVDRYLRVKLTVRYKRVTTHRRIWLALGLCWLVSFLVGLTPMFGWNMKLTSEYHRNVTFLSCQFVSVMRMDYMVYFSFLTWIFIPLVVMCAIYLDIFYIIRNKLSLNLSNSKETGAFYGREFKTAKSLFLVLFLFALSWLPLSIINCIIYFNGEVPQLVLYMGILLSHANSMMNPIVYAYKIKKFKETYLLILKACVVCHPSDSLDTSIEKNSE
Assay: Adenosine receptor TR-FRET binding assay, A3
Conditions: Table 9, further testing; displacement of 100 nM CA200645, CHO cell membranes; read-out: A3 Ki
pKi: −log10 of the molar value. Counter-ions that a name gives are not always drawn.
value_kind: pKi

Some molecules with known pKi results, for comparison:
> print(dat)
                                   molecule  numeric.value
1  Nc1nc(-c2ccco2)ncc1C(=O)NCc1cccc2cccnc12           6.30
2  Cc1cccnc1CNC(=O)c1c(N)nc(-c2ccco2)nc1OCCCN [Example 23.5, dihydrochloride]           5.67
3  Cc1cccnc1CNC(=O)c1c(N)nc(-c2ccco2)nc1OC[C@H](C)O           7.96
4       Nc1nc(-c2ccco2)ncc1C(=O)NCc1ncccc1F           5.52

[A] CC(O)CCNC(=O)c1c(N)nc(-c2cccc(C#N)c2)nc1OCCF (stereo not drawn)
[B] COc1cc(CNC(=O)c2cnc(-c3ccco3)nc2N)cc(OC)c1
[C] Cc1cccnc1CNC(=O)c1nnc(-c2ccco2)nc1N
[D] Nc1nc(-c2cccc(F)c2)ncc1C(=O)NCc1cccc2cccnc12
[E] Cc1cc(C)cc(CNC(=O)c2cnc(-c3ccco3)nc2N)c1
Exam item: Arrange the 5 molecules by rising pKi, starting with the smallest. Arrange the labels as the request states and list them.
Marked response: B, A, E, D, C
